biological target: human NLRP3 (Homo sapiens (Human)); assay: Scintillation Proximity (SPA) NLRP3 Assay: displacement of 3H-MCC950; assay type: binding; conditions: displacement of 3H-MCC950; read-out: SPA IC50
Sequence (Q96P20 whole entry): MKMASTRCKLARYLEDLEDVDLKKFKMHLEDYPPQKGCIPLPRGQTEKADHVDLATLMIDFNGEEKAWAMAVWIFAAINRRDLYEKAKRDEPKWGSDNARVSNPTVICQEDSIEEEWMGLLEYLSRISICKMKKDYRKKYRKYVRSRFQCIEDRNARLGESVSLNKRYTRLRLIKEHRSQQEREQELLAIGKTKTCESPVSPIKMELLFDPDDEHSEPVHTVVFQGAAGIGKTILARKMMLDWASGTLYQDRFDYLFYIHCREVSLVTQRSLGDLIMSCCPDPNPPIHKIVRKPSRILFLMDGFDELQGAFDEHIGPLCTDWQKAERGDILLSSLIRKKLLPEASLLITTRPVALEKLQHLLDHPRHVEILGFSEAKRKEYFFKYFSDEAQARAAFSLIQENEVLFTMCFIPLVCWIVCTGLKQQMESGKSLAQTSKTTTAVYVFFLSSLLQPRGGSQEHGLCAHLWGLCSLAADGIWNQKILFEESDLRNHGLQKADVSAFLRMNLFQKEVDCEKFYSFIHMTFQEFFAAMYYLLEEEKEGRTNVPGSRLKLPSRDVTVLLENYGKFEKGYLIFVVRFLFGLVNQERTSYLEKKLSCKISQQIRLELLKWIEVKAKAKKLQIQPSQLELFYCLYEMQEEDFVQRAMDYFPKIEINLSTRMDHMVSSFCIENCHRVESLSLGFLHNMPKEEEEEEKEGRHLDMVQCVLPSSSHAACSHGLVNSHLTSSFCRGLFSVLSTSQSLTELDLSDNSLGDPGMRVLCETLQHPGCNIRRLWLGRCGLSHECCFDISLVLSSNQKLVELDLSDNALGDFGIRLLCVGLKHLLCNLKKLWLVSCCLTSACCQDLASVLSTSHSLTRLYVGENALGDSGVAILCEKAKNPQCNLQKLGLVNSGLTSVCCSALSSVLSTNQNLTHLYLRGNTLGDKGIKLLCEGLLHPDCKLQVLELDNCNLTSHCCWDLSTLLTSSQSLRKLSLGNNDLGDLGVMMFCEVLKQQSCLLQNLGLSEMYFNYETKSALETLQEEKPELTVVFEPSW
pIC50: −log10 of the molar value.
measurementType: pIC50

INSERT INTO assay_data (compound, measurementtype, resultvalue) VALUES
  ('C[C@H]1C[C@@H](NC(=O)C2(c3ccc(C(F)(F)F)cc3F)CC2)[C@@H]2CC[C@H]1N2c1nnn[nH]1 [84C*]', 'pIC50', '< 4.00'),
  ('C[C@H]1CCN(c2nnn[nH]2)C[C@H](NC(=O)C2(c3ccc(Cl)c(F)c3F)CC2)C1 (single isomer, unassigned) [4C*]', 'pIC50', '4.00 to 4.30'),
  ('C[C@@H]1CC[C@@H](NC(=O)C2(c3ccc(Cl)cc3)CC2)CN(c2nnn[nH]2)C1 (single isomer, unassigned) [36C*]', 'pIC50', '< 4.00'),
  ('C[C@@H]1CCN(c2nnn[nH]2)CC(NC(=O)C2(c3ccc(OC(F)F)cc3)CC2)C1 (stereo in doubt) [58B*]', 'pIC50', '5.00 to 6.00'),
  ('C[C@H]1CCN(c2nnn[nH]2)C[C@@H](NC(=O)C2(c3ccc(Cl)cc3F)CC2)C1 (single isomer, unassigned) [56D*]', 'pIC50', '4.30 to 5.00'),
  ('C[C@@H]1C[C@H](NC(=O)C2(c3ccc(OC(F)F)cc3F)CC2)[C@H]2CC[C@@H]1N2c1nnn[nH]1 (stereo in doubt) [101B*]', 'pIC50', '< 4.00'),
  ('C[C@H]1CCN(c2nnn[nH]2)C[C@@H](NC(=O)C2(c3cc(F)c(C(F)(F)F)cc3F)CC2)C1 (single isomer, unassigned) [7D*]', 'pIC50', '5.00 to 6.00'),
  ('O=C(NC1CC(C2CC2)CN(c2nnn[nH]2)C1)C1(c2ccc(Cl)cc2)CC1 (single isomer, unassigned) [Rac-13B*/C*]', 'pIC50', '4.00 to 4.30'),
  ('C[C@@H]1C[C@H](NC(=O)C2(c3ccc(C4CC4)c(F)c3O)CC2)[C@H]2CC[C@@H]1N2c1nnn[nH]1 [83B*]', 'pIC50', '4.30 to 5.00'),
  ('O=C(N[C@H]1CC[C@@H]2CC[C@H]1N2c1nnn[nH]1)C1(c2ccc(Cl)c(F)c2O)CC1 [76B*]', 'pIC50', '4.30 to 5.00'),
  ('O=C(N[C@@H]1CC[C@H]2CC[C@@H]1N2c1nnn[nH]1)C1(c2ccc(Cl)c(F)c2O)CC1 [76C*]', 'pIC50', '> 6.00'),
  ('C[C@H]1C[C@@H](NC(=O)C2(c3ccc(OC(F)F)cc3O)CC2)[C@@H]2CC[C@H]1N2c1nnn[nH]1 [43C*]', 'pIC50', '< 4.00'),
  ('C[C@H]1C[C@H](NC(=O)C2(c3ccc(OC(F)F)cc3F)CC2)[C@@H]2CC[C@H]1N2c1nnn[nH]1 (stereo in doubt) [101D*]', 'pIC50', '4.30 to 5.00'),
  ('C[C@H]1CCN(c2nnn[nH]2)C[C@@H](NC(=O)C2(c3ccc(Cl)cc3Cl)CC2)C1 (single isomer, unassigned) [55D*]', 'pIC50', '4.00 to 4.30'),
  ('C[C@H]1CCN(c2nnn[nH]2)C[C@H](NC(=O)C2(c3ccc(OC(F)(F)F)c(F)c3O)CC2)C1 (single isomer, unassigned) [28C*]', 'pIC50', '< 4.00'),
  ('O=C(N[C@H]1CCC[C@@H]2CC[C@H]1N2c1nnn[nH]1)C1(c2ccc(C(F)(F)F)cc2O)CC1 [88B*]', 'pIC50', '> 6.00'),
  ('C[C@@H]1CCN(c2nnn[nH]2)C[C@@H](NC(=O)C2(c3ccc(OC(F)(F)F)cc3)CC2)C1 (single isomer, unassigned) [57B*]', 'pIC50', '5.00 to 6.00'),
  ('C[C@@H]1CCN(c2nnn[nH]2)C[C@H](NC(=O)C2(c3cc(F)c(Cl)cc3O)CC2)C1 (single isomer, unassigned) [29A*]', 'pIC50', '> 6.00'),
  ('C[C@@H]1CCN(c2nnn[nH]2)C[C@H](NC(=O)C2(c3ccc(Cl)nc3O)CC2)C1 (single isomer, unassigned) [100A*]', 'pIC50', '> 6.00'),
  ('Cc1c(Cl)ccc(C2(C(=O)N[C@@H]3C[C@@H](C)CCN(c4nnn[nH]4)C3)CC2)c1O (single isomer, unassigned) [21C*]', 'pIC50', '< 4.00'),
  ('C[C@@]1(NC(=O)C2(c3ccc(Cl)cc3)CC2)CCCN(c2nnn[nH]2)C1 (single isomer, unassigned) [11A*]', 'pIC50', '< 4.00'),
  ('C[C@H]1[C@H](NC(=O)C2(c3ccc(Cl)cc3)CC2)CCCN1c1nnn[nH]1 [Compound 40C]', 'pIC50', '< 4.00'),
  ('C[C@H]1CCN(c2nnn[nH]2)C[C@H](NC(=O)C2(c3ccc(OC(F)(F)F)cc3F)CC2)C1 (single isomer, unassigned) [64C*]', 'pIC50', '4.00 to 4.30'),
  ('C[C@H]1C[C@@H](NC(=O)C2(c3ccc(C(F)(F)F)nc3O)CC2)CN(c2nnn[nH]2)C1 [Compound 24A]', 'pIC50', '5.00 to 6.00'),
  ('C[C@@H]1C[C@@H](NC(=O)C2(c3ccc(C4CC4)cc3)CC2)[C@H]2CC[C@@H]1N2c1nnn[nH]1 [81A*]', 'pIC50', '> 6.00'),
  ('C[C@H]1C[C@H](NC(=O)C2(c3ccc(C(F)F)cc3)CC2)[C@@H]2CC[C@H]1N2c1nnn[nH]1 [86D*]', 'pIC50', '< 4.00'),
  ('C[C@H]1CCN(c2nnn[nH]2)C[C@H](NC(=O)C2(c3ccc(OC(F)F)c(F)c3)CC2)C1 (single isomer, unassigned) [73C*]', 'pIC50', '4.30 to 5.00');
